Consider the following variants; for each one, report its protein stability index.
B1: KCNA4 (parent)
chain: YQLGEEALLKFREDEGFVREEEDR

variants of: B1; assay: protein stability index of a GFP-peptide fusion (GPS, HEK-293T) (PSI 1-6); higher = more stable; conditions: c terminus: a fixed tail appended;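 note: lentivirally expressed fusions sorted by FACS into six bins by GFP to DsRed ratio, PSI derived from sequencing read proportions per bin multiplied by bin number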

Sample "G16L" — what was its protein stability index?
4.85

Sample "Q2Y" — what was its protein stability index?
4.31

Sample "G16H" — what was its protein stability index?
4.8

Sample "R12F" — what was its protein stability index?
4.62

Sample "E6D" — what was its protein stability index?
4.67

Sample "R19G" — what was its protein stability index?
4.85

Sample "R24T" — what was its protein stability index?
4.71

Sample "E13Q" — what was its protein stability index?
4.3

Sample "R19E" — what was its protein stability index?
4.91

Sample "D23T" — what was its protein stability index?
4.11

Sample "E20I" — what was its protein stability index?
3.4

Sample "K10A" — what was its protein stability index?
4.01

Sample "Q2S" — what was its protein stability index?
5.61

Sample "D14Y" — what was its protein stability index?
3.59

Sample "F17P" — what was its protein stability index?
4.9

Sample "V18C" — what was its protein stability index?
4.53

Sample "G4H" — what was its protein stability index?
4.8

Sample "D14S" — what was its protein stability index?
3.56

Sample "E6T" — what was its protein stability index?
4.32

Sample "K10M" — what was its protein stability index?
3.59

Sample "E22R" — what was its protein stability index?
3.95

Sample "E22A" — what was its protein stability index?
4.75

Sample "E15A" — what was its protein stability index?
3.83

Sample "L3P" — what was its protein stability index?
5.28

Sample "R24D" — what was its protein stability index?
4.71

Sample "L3H" — what was its protein stability index?
5.22

Sample "G16A" — what was its protein stability index?
4.65

Sample "G16Q" — what was its protein stability index?
4.73

Sample "E15H" — what was its protein stability index?
3.87

Sample "V18D" — what was its protein stability index?
4.83

Sample "F11E" — what was its protein stability index?
5.67

Sample "F17G" — what was its protein stability index?
4.01

Sample "K10W" — what was its protein stability index?
2.25

Sample "Y1D" — what was its protein stability index?
5.79

Sample "F17M" — what was its protein stability index?
3.69

Sample "E13V" — what was its protein stability index?
3.81

Sample "F11L" — what was its protein stability index?
5.38

Sample "A7P" — what was its protein stability index?
4.59

Sample "E21V" — what was its protein stability index?
4.29

Sample "F17A" — what was its protein stability index?
4.78

Sample "D23M" — what was its protein stability index?
3.76

Sample "F11A" — what was its protein stability index?
4.72

Sample "Q2A" — what was its protein stability index?
5.36

Sample "A7M" — what was its protein stability index?
4.14

Sample "F11G" — what was its protein stability index?
5.61

Sample "E20H" — what was its protein stability index?
4.49
